Sourced from ChEMBL document CHEMBL1128059

Biological target: UniProtKB P08049
Sequence (P08049 whole entry): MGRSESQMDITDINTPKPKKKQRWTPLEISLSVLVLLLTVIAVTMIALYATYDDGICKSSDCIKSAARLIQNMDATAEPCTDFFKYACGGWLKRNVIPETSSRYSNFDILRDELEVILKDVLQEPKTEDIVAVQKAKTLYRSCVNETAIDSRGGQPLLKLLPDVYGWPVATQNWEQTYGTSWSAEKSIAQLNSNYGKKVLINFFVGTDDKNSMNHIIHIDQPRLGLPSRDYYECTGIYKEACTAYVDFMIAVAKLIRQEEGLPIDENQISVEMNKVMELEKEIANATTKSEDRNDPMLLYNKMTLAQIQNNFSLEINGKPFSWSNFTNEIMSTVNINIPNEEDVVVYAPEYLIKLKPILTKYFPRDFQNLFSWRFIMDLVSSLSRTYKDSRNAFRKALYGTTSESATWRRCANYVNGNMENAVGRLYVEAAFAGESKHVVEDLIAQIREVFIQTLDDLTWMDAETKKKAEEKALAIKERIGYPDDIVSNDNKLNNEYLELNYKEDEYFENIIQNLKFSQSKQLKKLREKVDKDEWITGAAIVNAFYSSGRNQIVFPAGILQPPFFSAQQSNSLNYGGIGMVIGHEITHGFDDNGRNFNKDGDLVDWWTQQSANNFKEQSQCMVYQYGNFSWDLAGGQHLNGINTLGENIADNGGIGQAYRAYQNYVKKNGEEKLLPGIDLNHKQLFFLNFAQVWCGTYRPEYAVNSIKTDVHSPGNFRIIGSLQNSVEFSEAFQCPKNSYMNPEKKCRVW
Give measured IC50 for each item. Keep answers brief.
Your answer should be a plain number; it is taken to be in µM.

Which IC50 is reported for this compound? `C[C@H](NC(=O)[C@@H](CC(=O)NO)CC1CCCCC1)C(=O)O` 2

Using the record for `O=C(C[C@@H](Cc1ccccc1)C(=O)N1CCCC[C@H]1C(=O)O)NO` , report its IC50. 17

Suppose we examine the compound `CSCC[C@@H](NC(=O)[C@@H](CC(=O)NO)Cc1ccccc1)C(=O)O` ; what IC50 value has been reported? 61

What measured IC50 goes with `C[C@@H](C(=O)O)N(C)C(=O)[C@@H](CC(=O)NO)Cc1ccccc1` ? 3.4

Which IC50 is listed for `O=C(C[C@@H](Cc1ccccc1)C(=O)N[C@@H](CC1CCCCC1)C(=O)O)NO` ? 104
